Target protein (sequence): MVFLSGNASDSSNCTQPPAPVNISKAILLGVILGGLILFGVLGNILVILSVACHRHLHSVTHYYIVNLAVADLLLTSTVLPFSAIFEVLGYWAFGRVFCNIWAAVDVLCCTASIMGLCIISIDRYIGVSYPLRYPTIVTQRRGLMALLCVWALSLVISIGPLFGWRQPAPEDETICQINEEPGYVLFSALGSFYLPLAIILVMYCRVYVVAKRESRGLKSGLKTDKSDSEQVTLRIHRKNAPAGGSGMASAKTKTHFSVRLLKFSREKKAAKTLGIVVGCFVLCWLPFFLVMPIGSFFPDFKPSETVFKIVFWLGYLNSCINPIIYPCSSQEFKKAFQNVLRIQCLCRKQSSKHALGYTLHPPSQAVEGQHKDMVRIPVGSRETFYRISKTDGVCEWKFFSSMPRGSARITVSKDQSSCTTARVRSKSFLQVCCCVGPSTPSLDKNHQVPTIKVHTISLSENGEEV
Measured metric: IC50

Incoming: Identify IC50 associated with the compound C[C@H]([C@@H](O)c1ccc(O)cc1)N1CCC(Cc2ccccc2)CC1 [(S,R)-IFENPRODIL]
Outgoing: 0.1 µM

Incoming: Please supply the value of reported IC50 for the item "O=C(/C=C/c1ccc(O)cc1)NCCCCc1ccccc1"
Outgoing: > 100 µM

Incoming: Given the compound "O=C(/C=C/c1ccc(O)cc1)N1CCC(Cc2ccccc2)CC1" , write its reported IC50.
Outgoing: > 100 µM

* * *

# Tested on: Glutamate NMDA receptor; Grin1/Grin2a (Rattus norvegicus, UniProt P35439+Q00959)
# Sequence (Q00959 whole entry, other chains not shown): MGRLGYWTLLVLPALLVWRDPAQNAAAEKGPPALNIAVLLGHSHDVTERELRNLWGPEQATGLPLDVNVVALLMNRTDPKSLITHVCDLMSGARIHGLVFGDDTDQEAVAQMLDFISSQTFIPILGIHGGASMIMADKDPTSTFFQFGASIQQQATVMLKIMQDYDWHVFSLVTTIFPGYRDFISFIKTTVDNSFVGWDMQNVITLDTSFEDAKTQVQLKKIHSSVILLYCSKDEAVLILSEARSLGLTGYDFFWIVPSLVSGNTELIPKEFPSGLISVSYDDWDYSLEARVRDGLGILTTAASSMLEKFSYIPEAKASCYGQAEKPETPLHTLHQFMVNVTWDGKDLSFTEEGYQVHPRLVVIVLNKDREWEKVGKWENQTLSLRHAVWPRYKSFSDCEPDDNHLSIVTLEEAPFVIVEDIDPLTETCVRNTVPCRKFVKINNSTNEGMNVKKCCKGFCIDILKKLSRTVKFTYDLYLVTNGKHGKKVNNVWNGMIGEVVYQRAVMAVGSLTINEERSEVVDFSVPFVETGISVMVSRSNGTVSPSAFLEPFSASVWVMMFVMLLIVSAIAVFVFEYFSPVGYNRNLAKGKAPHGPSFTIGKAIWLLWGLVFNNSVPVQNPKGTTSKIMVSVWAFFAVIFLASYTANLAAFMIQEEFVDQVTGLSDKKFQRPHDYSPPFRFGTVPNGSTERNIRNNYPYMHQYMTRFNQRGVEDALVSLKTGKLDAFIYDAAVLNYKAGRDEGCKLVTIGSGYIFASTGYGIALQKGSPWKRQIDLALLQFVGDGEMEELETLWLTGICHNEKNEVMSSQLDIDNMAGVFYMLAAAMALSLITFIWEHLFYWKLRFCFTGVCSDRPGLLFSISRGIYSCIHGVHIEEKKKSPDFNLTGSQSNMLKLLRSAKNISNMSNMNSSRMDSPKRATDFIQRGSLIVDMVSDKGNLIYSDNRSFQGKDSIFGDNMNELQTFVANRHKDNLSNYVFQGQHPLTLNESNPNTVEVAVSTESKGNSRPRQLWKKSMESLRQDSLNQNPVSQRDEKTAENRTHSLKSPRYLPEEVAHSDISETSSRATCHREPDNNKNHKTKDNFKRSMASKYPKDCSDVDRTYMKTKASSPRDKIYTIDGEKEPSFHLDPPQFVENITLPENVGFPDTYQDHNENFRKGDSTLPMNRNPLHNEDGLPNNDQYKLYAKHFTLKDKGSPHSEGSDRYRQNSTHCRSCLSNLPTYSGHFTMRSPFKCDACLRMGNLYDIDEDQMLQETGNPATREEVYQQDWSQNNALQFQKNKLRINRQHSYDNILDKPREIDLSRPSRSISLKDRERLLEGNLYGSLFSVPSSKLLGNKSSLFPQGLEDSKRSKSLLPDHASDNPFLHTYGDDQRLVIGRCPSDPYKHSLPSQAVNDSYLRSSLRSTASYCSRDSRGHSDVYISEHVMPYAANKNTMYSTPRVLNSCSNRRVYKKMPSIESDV
# Measurement description: Antagonistic activity against N-methyl-D-aspartate glutamate receptor 1/2A.
pIC50: −log10 of the molar value.
I'd appreciate it if you could supply pIC50 values for the items below.

Incoming: Output measured pIC50 for this item: "O=C(O)COc1ccc(CCNC(=O)/C=C/c2ccc(Cl)cc2)cc1"
Outgoing: 4.35

Incoming: Please supply the value of reported pIC50 for the item "O=C(/C=C/c1ccc(Cl)cc1)NCCc1ccc(Cl)cc1"
Outgoing: < 4.00

Incoming: Report pIC50, nothing else, for this molecule: "O=C(/C=C/c1ccccc1)NCCc1ccc(O)cc1"
Outgoing: < 4.00

Incoming: Indicate the recorded pIC50 value for this molecule: "O=C(/C=C/c1ccc(Cl)cc1Cl)NCCc1ccc(O)cc1"
Outgoing: < 4.00

Incoming: Look up pIC50 of "O=C(/C=C/c1ccccc1)NCCCCc1ccccc1" and report it.
Outgoing: < 4.00

Incoming: Look up pIC50 of "N#C/C(=C\c1ccc(O)c(O)c1)C(=O)NCc1ccccc1" and report it.
Outgoing: 4.72

Incoming: Could you please provide reported pIC50 for "N#C/C(=C\c1ccc(O)c(O)c1)C(=O)NCCc1ccccc1" ? Thanks!
Outgoing: < 4.00

Incoming: Please list pIC50 recorded for the molecule "N#C/C(=C\c1ccc(O)c(O)c1)C(=O)NCCCc1ccccc1"
Outgoing: < 4.00

Incoming: Specify measured pIC50 for "N#C/C(=C\c1ccc(O)cc1)C(=O)NCCCCc1ccccc1" .
Outgoing: < 4.00

Incoming: Annotate the molecule "CCN(CC)CCOc1ccc(CCNC(=O)/C=C/c2ccc(Cl)cc2)cc1" with its measured pIC50.
Outgoing: 4.31

Incoming: Please list pIC50 recorded for the molecule "O=C(/C=C/c1ccc(O)cc1)NCCc1ccc(Cl)cc1"
Outgoing: < 4.00

Incoming: Could you please provide reported pIC50 for "O=C(CCc1ccc(O)cc1)NCCCCc1ccccc1" ? Thanks!
Outgoing: < 4.00

Incoming: Tell me pIC50 reported for "O=C(/C=C/c1cc(Cl)ccc1Cl)NCCCCc1ccccc1"
Outgoing: < 4.00

Incoming: Retrieve pIC50 measured for C[C@@H]([C@@H](O)c1ccc(O)cc1)N1CCC(O)(c2ccccc2)CC1 [TRAXOPRODIL] and print it.
Outgoing: < 4.00

Incoming: Using known records, supply pIC50 for "O=C(/C=C/c1ccc(Cl)cc1)NCCc1ccccc1"
Outgoing: < 4.00

Incoming: Return value of pIC50 for input "O=C(/C=C/c1ccc(O)cc1)NCCc1ccccc1" , no commentary.
Outgoing: < 4.00

Incoming: For the molecule "O=C(/C=C/c1ccc(O)cc1)NCCCCc1ccc(Cl)cc1" , give its reported pIC50.
Outgoing: < 4.00

Incoming: Using known records, supply pIC50 for "N#C/C(=C\c1cccc(O)c1)C(=O)NCCCCc1ccccc1"
Outgoing: < 4.00

Incoming: Give reported pIC50 value for "N#C/C(=C\c1ccc(Cl)cc1)C(=O)NCCCCc1ccccc1"
Outgoing: < 4.00

Incoming: Read the entry O=C(/C=C/c1ccc(O)cc1)NCCc1ccc(O)cc1 [N-P-COUMAROYL TYRAMINE] and write its reported pIC50.
Outgoing: < 4.00

Incoming: Return value of pIC50 for input "N#C/C(=C\c1ccc(F)cc1)C(=O)NCCCCc1ccccc1" , no commentary.
Outgoing: < 4.00

Incoming: Provide one value: measured pIC50 of "N#C/C(=C\c1ccc(Cl)cc1)C(=O)NCCc1ccc(O)cc1"
Outgoing: 4.11

Incoming: Return value of pIC50 for input "O=C(/C=C/c1ccc(Cl)cc1)NCCc1cccc(O)c1" , no commentary.
Outgoing: < 4.00

Incoming: For the molecule "O=C(/C=C/c1ccc(Cl)cc1)NCCc1ccc(O)cc1" , give its measured pIC50 value.
Outgoing: < 4.00

Incoming: Please indicate pIC50 recorded for "N#C/C(=C\c1ccc(O)c(O)c1)C(=O)Nc1ccccc1"
Outgoing: < 4.00

Incoming: Kindly indicate its recorded pIC50. Item: "N#C/C(=C\c1ccccc1)C(=O)NCCCCc1ccccc1"
Outgoing: < 4.00

Incoming: Tell me pIC50 reported for "O=C(CCCCCc1ccccc1)CCc1ccc(O)cc1"
Outgoing: 4.64

Incoming: Dear colleague, please send me the reported pIC50 for "O=C(/C=C/c1ccc(O)cc1)NCCCCc1ccccc1" when you can.
Outgoing: < 4.00

* * *

# Tested on: Glutamate NMDA receptor; Grin1/Grin2b (Rattus norvegicus, UniProt P35439+Q00960)
# Sequence (Q00960 whole entry, other chains not shown): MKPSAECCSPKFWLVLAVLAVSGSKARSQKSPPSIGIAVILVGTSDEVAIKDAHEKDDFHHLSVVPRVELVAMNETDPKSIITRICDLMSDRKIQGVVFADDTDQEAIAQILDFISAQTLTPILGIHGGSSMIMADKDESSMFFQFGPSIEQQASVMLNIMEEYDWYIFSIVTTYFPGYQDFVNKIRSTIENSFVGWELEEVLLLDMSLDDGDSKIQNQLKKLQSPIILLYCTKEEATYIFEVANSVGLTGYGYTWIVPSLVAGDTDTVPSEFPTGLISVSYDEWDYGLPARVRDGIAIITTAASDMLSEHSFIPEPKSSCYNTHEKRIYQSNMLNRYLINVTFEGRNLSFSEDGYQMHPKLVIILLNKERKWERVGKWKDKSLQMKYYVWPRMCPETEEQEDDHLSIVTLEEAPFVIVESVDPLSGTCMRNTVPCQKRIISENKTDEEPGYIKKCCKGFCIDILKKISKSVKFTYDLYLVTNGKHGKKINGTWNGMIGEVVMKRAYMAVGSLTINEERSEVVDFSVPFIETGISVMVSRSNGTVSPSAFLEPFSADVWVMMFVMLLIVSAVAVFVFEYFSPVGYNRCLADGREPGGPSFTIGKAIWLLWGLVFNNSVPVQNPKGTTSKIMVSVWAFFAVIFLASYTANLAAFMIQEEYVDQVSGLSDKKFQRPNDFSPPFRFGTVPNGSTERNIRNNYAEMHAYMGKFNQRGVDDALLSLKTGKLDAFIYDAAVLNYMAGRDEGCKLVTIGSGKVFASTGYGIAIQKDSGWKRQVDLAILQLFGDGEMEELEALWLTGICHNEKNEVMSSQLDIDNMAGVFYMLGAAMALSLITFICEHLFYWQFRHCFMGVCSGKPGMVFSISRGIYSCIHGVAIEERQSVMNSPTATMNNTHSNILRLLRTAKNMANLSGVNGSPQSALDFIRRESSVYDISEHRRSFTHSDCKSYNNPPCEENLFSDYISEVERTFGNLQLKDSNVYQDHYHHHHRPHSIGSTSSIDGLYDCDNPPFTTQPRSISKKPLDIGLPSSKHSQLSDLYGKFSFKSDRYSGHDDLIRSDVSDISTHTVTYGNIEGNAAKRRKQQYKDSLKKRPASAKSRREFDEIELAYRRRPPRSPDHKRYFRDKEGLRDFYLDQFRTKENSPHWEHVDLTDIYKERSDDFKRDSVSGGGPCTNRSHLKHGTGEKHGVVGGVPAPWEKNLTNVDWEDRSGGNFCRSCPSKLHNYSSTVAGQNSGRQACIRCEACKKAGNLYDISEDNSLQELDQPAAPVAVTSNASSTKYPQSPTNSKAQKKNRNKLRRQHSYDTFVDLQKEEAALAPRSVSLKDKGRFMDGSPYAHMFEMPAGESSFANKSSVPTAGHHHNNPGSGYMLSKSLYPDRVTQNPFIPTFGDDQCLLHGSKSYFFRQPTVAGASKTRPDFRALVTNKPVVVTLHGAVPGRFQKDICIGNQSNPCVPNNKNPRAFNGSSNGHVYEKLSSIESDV
# Measurement description: Antagonistic activity against N-methyl-D-aspartate glutamate receptor 1/2B.
Note to self: IC50 under 9 µM means true (1), ties and anything higher get false (0).

Incoming: Decide: IC50 of "N#C/C(=C\c1ccc(O)c(O)c1)C(=O)NCCCCc1ccccc1" strictly below 9 µM?
Outgoing: true (1)

Incoming: Below 9 µM on IC50? Entry "N#C/C(=C\c1ccc(O)c(O)c1)C(=O)Nc1ccccc1"
Outgoing: false (0)

Incoming: Problem: For the compound "N#C/C(=C\c1ccc(O)c(O)c1)C(=O)NCc1ccccc1" , is IC50 under 9 µM?
Outgoing: false (0)

Incoming: hey, is IC50 for "O=C(/C=C/c1ccc(O)cc1)NCCc1ccc(O)cc1" lower than 9 µM or not?
Outgoing: false (0)

Incoming: A record lists "N#C/C(=C\c1ccc(F)cc1)C(=O)NCCCCc1ccccc1" . Is its IC50 below 9 µM?
Outgoing: false (0)

Incoming: Hello, I'm reviewing records and need to know if IC50 of "N#C/C(=C\c1ccc(O)c(O)c1)C(=O)NCCCc1ccccc1" is below 9 µM. Could you check?
Outgoing: true (1)

Incoming: In plain terms, does "O=C(CCCCCc1ccccc1)CCc1ccc(O)cc1" come in under 9 µM for IC50?
Outgoing: true (1)
